# ASSAY INFO: Solubility of bisacodyl in the co-existence of dioctyl sodium sulfosuccinate
# Type: physicochemical
# SETUP CONDITIONS: 0.14% dioctyl sodium sulfosuccinate aqueous solution, aqueous with cosolvent or surfactant or cyclodextrin, thermodynamic from solid; Sample 2: 0.14% DSS aq.

- SMILES CODE: "CC(=O)Oc1ccc(C(c2ccc(OC(C)=O)cc2)c2ccccn2)cc1"
  solubility at 5 h: "4.51 µg/mL"

----------
# ASSAY INFO: Solubility of bisacodyl in the co-existence of dioctyl sodium sulfosuccinate
# Type: physicochemical
# SETUP CONDITIONS: thermodynamic from solid; Control: purified water, 0% DSS; shaken 5 hours
# Protocol: Variation in solubility of bisacodyl was studied in the co-existence of bisacodyl and dioctyl sodium sulfosuccinate. Bisacodyl was dispersed in purified water and the dispersion was shaken under given conditions for 5 hours. The resulting liquid was centrifuged at 3000 min^−1 for 5 min. Then, the supernatant was collected and the amount of dissolved bisacodyl was determined by HPLC. […] Then, the supernatant was collected and the amount of dissolved bisacodyl was determined by HPLC.
VALUE KIND: solubility at 5 h

- SMILES CODE: "CC(=O)Oc1ccc(C(c2ccc(OC(C)=O)cc2)c2ccccn2)cc1"
  RESULT: "1.89 µg/mL"

----------
# ASSAY INFO: Solubility of bisacodyl in the co-existence of dioctyl sodium sulfosuccinate
# Assay type: physicochemical
# SETUP CONDITIONS: 0.07% dioctyl sodium sulfosuccinate aqueous solution, aqueous with cosolvent or surfactant or cyclodextrin, thermodynamic from solid; Sample 1: 0.07% DSS aq.

- SMILES CODE: "CC(=O)Oc1ccc(C(c2ccc(OC(C)=O)cc2)c2ccccn2)cc1"
  UNITS TEXT: "µg/mL"
  solubility at 5 h: 3.62
